Data origin: patent US20230391748A1

Heads up, these molecules all have pIC50 values measured for IRAK4 (Homo sapiens (Human)).
In plain terms, pIC50 is the concentration in mol/L turned into minus its base-10 logarithm.

Q: I am curious: what pIC50 value has been reported for `CC(C)Oc1cc2c(OC[C@@H]3CCC(=O)N3)ncc(C#CC3CCOCC3)c2cc1C(N)=O` ?
Result: 8.29

Q: I am curious: what pIC50 value has been reported for `CC(C)Oc1cc2c(O[C@@H]3CCCN(C(=O)CC#N)C3)ncc(-c3cnn([C@H]4C[C@@H](N(C)C)C4)c3)c2cc1C(N)=O` ?
Result: 8.08

Q: I am curious: what pIC50 value has been reported for `CC(C)Oc1cc2c(O[C@@H]3CCCN(C(=O)CC#N)C3)ncc(C#CC3CNC3)c2cc1C(N)=O` ?
Result: 8.28

====

target_or_test_system: UniProtKB Q9NWZ3
Label true when IC50 < 10 nM; otherwise false.

Example results:
CC(C)Oc1cc2c(OC[C@@H]3CC(F)(F)C(=O)N3)ncc(-c3cnn(CC4CCOCC4)c3)c2cc1C(N)=O	true
CC(C)Oc1cc2c(O[C@@H]3CCCN(C(=O)CC#N)C3)ncc(-c3cnn(C4CCCC4)c3)c2cc1C(N)=O	true
CC(C)Oc1cc2c(OC[C@@H]3CCC(=O)N3)ncc(-c3cnn([C@H]4CC[C@](C)(O)CC4)c3)c2cc1C(N)=O	false

Q: State whether 10 nM exceeds IC50 recorded for `CC(C)Oc1cc2c(OC[C@@H]3CC(F)(F)C(=O)N3)ncc(C#CC3CNC3)c2cc1C(N)=O` .
Result: true

Q: State whether 10 nM exceeds IC50 recorded for `CC(C)Oc1cc2c(OC[C@@H]3CC(F)(F)C(=O)N3)ncc(-c3cnn(C4CC4)c3)c2cc1C(N)=O` .
Result: true

Q: State whether 10 nM exceeds IC50 recorded for `CCO[C@H]1CC[C@H](n2cc(-c3cnc(OC[C@@H]4CC(F)(F)C(=O)N4)c4cc(OC(C)C)c(C(N)=O)cc34)cn2)CC1` .
Result: true

Q: State whether 10 nM exceeds IC50 recorded for `CC(C)Oc1cc2c(OC[C@@H]3CC(F)(F)C(=O)N3)ncc(C#CC3CCNCC3)c2cc1C(N)=O` .
Result: true

Q: State whether 10 nM exceeds IC50 recorded for `CC(C)Oc1cc2c(OC[C@@H]3CC(F)(F)C(=O)N3)ncc(-c3cnn(C4CCOCC4)c3)c2cc1C(N)=O` .
Result: true

Q: State whether 10 nM exceeds IC50 recorded for `CC(C)Oc1cc2c(O[C@@H]3CCCN(C(=O)CC#N)C3)ncc(C#C[C@H]3CC[C@@](C)(O)CC3)c2cc1C(N)=O` .
Result: false

Q: State whether 10 nM exceeds IC50 recorded for `CC(C)Oc1cc2c(OC[C@@H]3CCC(=O)N3)ncc(-c3cnn(C4CCN(C)CC4)c3)c2cc1C(N)=O` .
Result: false

Q: State whether 10 nM exceeds IC50 recorded for `COC(=O)N1CCC(C#Cc2cnc(OC[C@@H]3CCC(=O)N3)c3cc(OC(C)C)c(C(N)=O)cc23)CC1` .
Result: false

Q: State whether 10 nM exceeds IC50 recorded for `CC(C)Oc1cc2c(OC[C@@H]3CC(F)(F)C(=O)N3)ncc(C#C[C@H]3CC[C@@](C)(O)CC3)c2cc1C(N)=O` .
Result: true

Q: State whether 10 nM exceeds IC50 recorded for `CC(C)Oc1cc2c(O[C@@H]3CCCN(C(=O)CC#N)C3)ncc(-c3cnn(C4CCOCC4)c3)c2cc1C(N)=O` .
Result: false

Q: State whether 10 nM exceeds IC50 recorded for `CC(C)Oc1cc2c(OC[C@@H]3CC(F)(F)C(=O)N3)ncc(C#CC3CCN(C)CC3)c2cc1C(N)=O` .
Result: true

Q: State whether 10 nM exceeds IC50 recorded for `CC(C)Oc1cc2c(O[C@@H]3CCCNC3)ncc(-c3cnn(CC4CCOCC4)c3)c2cc1C(N)=O` .
Result: false

Q: State whether 10 nM exceeds IC50 recorded for `CC(C)Oc1cc2c(O[C@@H]3CCCN(C(=O)CC#N)C3)ncc(-c3cnn(C4CCN(C(=O)OC(C)(C)C)CC4)c3)c2cc1C(N)=O` .
Result: false

Q: State whether 10 nM exceeds IC50 recorded for `CC(C)Oc1cc2c(O[C@@H]3CCCN(C(=O)CC#N)C3)ncc(-c3cnn(C4CCNCC4)c3)c2cc1C(N)=O` .
Result: false

Q: State whether 10 nM exceeds IC50 recorded for `CNC(=O)N1CC(C#Cc2cnc(OC[C@@H]3CCC(=O)N3)c3cc(OC(C)C)c(C(N)=O)cc23)C1` .
Result: true

Q: State whether 10 nM exceeds IC50 recorded for `CC(C)Oc1cc2c(O[C@@H]3CCCN(C(=O)CC#N)C3)ncc(-c3cnn(CCC4CCOCC4)c3)c2cc1C(N)=O` .
Result: false

Q: State whether 10 nM exceeds IC50 recorded for `CCO[C@H]1CC[C@H](n2cc(-c3cnc(OC[C@@H]4CCC(=O)N4)c4cc(OC(C)C)c(C(N)=O)cc34)cn2)CC1` .
Result: false

Q: State whether 10 nM exceeds IC50 recorded for `CC(C)Oc1cc2c(O[C@@H]3CCCN(C(=O)CC#N)C3)ncc(C#CC3(O)CCN(C(=O)OC(C)(C)C)CC3)c2cc1C(N)=O` .
Result: false

====

target_or_test_system: UniProtKB Q9NWZ3
readout: pIC50
In plain terms, pIC50 is the concentration in mol/L turned into minus its base-10 logarithm.

Here are 6 molecules together with their reported answers.
CC(C)Oc1cc2c(OC[C@@H]3CCC(=O)N3)ncc(C#C[C@H]3CC[C@](C)(O)CC3)c2cc1C(N)=O	7.91
CC(C)Oc1cc2c(OC[C@@H]3CCC(=O)N3)ncc(C#CC3(O)CCOCC3)c2cc1C(N)=O	7.94
CC(C)Oc1cc2c(O[C@@H]3CCCN(C(=O)CC#N)C3)ncc(C#C[C@H]3C[C@@H](N(C)C)C3)c2cc1C(N)=O	8.49
CC(C)Oc1cc2c(OC[C@@H]3CCC(=O)N3)ncc(-c3cnn(C4CCC4)c3)c2cc1C(N)=O	8.12
CCO[C@H]1CC[C@H](C#Cc2cnc(OC[C@@H]3CCC(=O)N3)c3cc(OC(C)C)c(C(N)=O)cc23)CC1	8.15
CC(C)Oc1cc2c(OC[C@@H]3CC(F)(F)C(=O)N3)ncc(-c3cnn(C4CCNCC4)c3)c2cc1C(N)=O	8.40

Q: What value of pIC50 on UniProtKB Q9NWZ3 does `CC(C)Oc1cc2c(OC[C@@H]3CCC(=O)N3)ncc(C#CC3(O)CCCC3)c2cc1C(N)=O` have?
Result: 8.00

====

Heads up, these compounds all have IC50 values measured for IRAK4 (Homo sapiens (Human), UniProt Q9NWZ3).
# value in nM; strip the unit string

Here are 5 compounds together with their reported answers.
CC(C)Oc1cc2c(O[C@@H]3CCCN(C(=O)CC#N)C3)ncc(-c3cnn(C4CCC4)c3)c2cc1C(N)=O [Compound I-115]	13.2
CC(C)Oc1cc2c(OC[C@@H]3CC(F)(F)C(=O)N3)ncc(-c3cnn([C@H]4CC[C@](C)(O)CC4)c3)c2cc1C(N)=O [Compound I-78]	3.6
CCO[C@H]1CC[C@@H](C#Cc2cnc(OC[C@@H]3CC(F)(F)C(=O)N3)c3cc(OC(C)C)c(C(N)=O)cc23)CC1 [Compound I-59]	3.9
CCO[C@H]1CC[C@H](C#Cc2cnc(O[C@@H]3CCCN(C(=O)CC#N)C3)c3cc(OC(C)C)c(C(N)=O)cc23)CC1 [Compound I-98]	25.5
CC(C)Oc1cc2c(OC[C@@H]3CC(F)(F)C(=O)N3)ncc(C#CC3(O)CCCC3)c2cc1C(N)=O [Compound I-48]	4.4

Q: I am curious: what IC50 value has been reported for CC(C)Oc1cc2c(OC[C@@H]3CC(F)(F)C(=O)N3)ncc(-c3cnn(CCC4CCOCC4)c3)c2cc1C(N)=O [Compound I-72] ?
Result: 7

Q: I am curious: what IC50 value has been reported for CC(C)Oc1cc2c(O[C@@H]3CCCNC3)ncc(-c3cnn(C4CCCC4)c3)c2cc1C(N)=O [Compound I-110] ?
Result: 123

Q: I am curious: what IC50 value has been reported for CC(C)Oc1cc2c(OC[C@@H]3CC(F)(F)C(=O)N3)ncc(-c3cnn(C4CCN(C)CC4)c3)c2cc1C(N)=O [Compound I-76] ?
Result: 2.4

Q: I am curious: what IC50 value has been reported for COC1(OC)CC(C#Cc2cnc(OC[C@@H]3CCC(=O)N3)c3cc(OC(C)C)c(C(N)=O)cc23)C1 [Compound I-30] ?
Result: 6.4

Q: I am curious: what IC50 value has been reported for CC(C)Oc1cc2c(O[C@@H]3CCCN(C(=O)CC#N)C3)ncc(C#CC3CCOCC3)c2cc1C(N)=O [Compound I-89] ?
Result: 15.2

Q: I am curious: what IC50 value has been reported for CC(C)Oc1cc2c(O[C@@H]3CCCN(C(=O)CC#N)C3)ncc(-c3cnn(CC4CCOCC4)c3)c2cc1C(N)=O [Compound I-118] ?
Result: 20.4

Q: I am curious: what IC50 value has been reported for CC(C)Oc1cc2c(OC[C@@H]3CC(F)(F)C(=O)N3)ncc(C#CC3CCN(C(=O)OC(C)(C)C)CC3)c2cc1C(N)=O [Compound I-54] ?
Result: 113
